# ASSAY_EXPLANATION: CRL2098 osteosarcoma cell growth inhibition, synergistic combos for chromothripsis tumors, BGB or cisplatin IC20 combos (AID 1671454);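 also: cells exposed for 96 h before readout; 0% = vehicle DMSO and 100% = killing by high DMSO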
# SETTINGS: CRL2098 osteosarcoma cells, drug combinations, measured here: combination with BGB at IC20, at 0.5 µM, stronger effect = higher value
Below, each of the compounds is paired with its reported inhibition value.
Kindly report the value followed by its unit.

>>> observed_measurement("CC1(C)C(C(=O)Nc2ccc(S(=O)(=O)c3ccc(NC(=O)C4C(C)(C)C4(C)C)cc3)cc2)C1(C)C")
"-51.4%"

Short answer for COc1cc(C2c3cc4c(cc3C(O)C3COC(=O)C23)OCO4)cc(OC)c1OC (stereo not drawn) : inhibition was 34.3%

Short answer for `Cn1c(COP(=O)(NCCBr)NCCBr)cnc1[N+](=O)[O-]` : inhibition was -30.9%

====

# ASSAY_EXPLANATION: liver-stage malaria parasite growth inhibition, primary screen, cell-based, HepG2, luciferase luminescence, HepG2 viability (AID 624349);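 also: 100% = mean of DMSO negative control wells on the same plate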
# SETTINGS: P. berghei liver stage in HepG2, luciferase luminescence, concentration not given here; stronger effect = lower value
MEASUREMENT_KIND: parasite load remaining (%)
Give your result in % as a bare value.

>>> observed_measurement("CN(C(Cc1ccc(OOSOc2cccc3cnccc23)cc1)C(=O)N1CCN(c2ccccc2)CC1)S(=O)(=O)c1cccc2cnccc12 (configuration not stated)")
43.1

Read the next record carefully.
Short answer for `C[C@H]1CC[C@@H]2[C@@H](C)[C@H]3[C@H](C[C@H]4[C@@H]5CC=C6C[C@@H](O[C@@H]7O[C@H](CO)[C@H](O)[C@H](O[C@@H]8O[C@H](CO)[C@@H](O)[C@H](O)[C@H]8O)[C@H]7O[C@@H]7O[C@@H](C)[C@H](O)[C@@H](O)[C@H]7O)CC[C@]6(C)[C@H]5CC[C@]34C)N2C1` : parasite load remaining was 143

====

# ASSAY_EXPLANATION: antimalarial activity against Dd2 strain (AID 2302);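 also: 0% = DMSO untreated growth and 100% = chloroquine plus artemisinin killed control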
# SETTINGS: P. falciparum Dd2 in RBCs, LDH growth readout, 72 h; at 2 µM
Calls of active or inactive are those of the source.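 How the source made its calls: active means growth inhibition above 50% at the single 2 µM test dose, taken to imply half-maximal potency below 2 µM; inactive means the rest.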
// classify into 1.0 for active, 0.0 for inactive

Observe how each entry below is paired with its result.
>>> class_name("O=C(NCc1ccc(S(=O)(=O)N2CCC(CN3CCC(c4c[nH]c5ccccc45)CC3)CC2)s1)c1ccccc1")
0.0
>>> class_name("CC(C)CNCc1cccc(-c2ccc(CN(C(=O)Nc3ccccc3)C3CCN(Cc4ccccc4)CC3)cc2)c1")
1.0
>>> class_name("Cc1[nH]c2ccccc2c1C1=CCN(CCCCCNC(=O)/C=C/c2ccc(Cl)c(Cl)c2)CC1")
1.0

Query block: Query: recorded result category for O=C(/C=C/c1ccc(Cl)c(Cl)c1)NC1CCC(CN2CC[C@H](c3c[nH]c4ccccc34)[C@@H](O)C2)CC1 (some centres undefined) in this test
Result block: 1.0

Query block: Query: recorded result category for `CCN(CC)CCOC(=O)C(OC)(c1ccccc1)c1ccccc1` in this test
Result block: 0.0

Query block: Query: recorded result category for `CC[C@H]1CN2CC[C@H]1C[C@H]2[C@H](O)c1cc(/C=C/c2ccccc2)nc2ccc(OC)cc12` in this test
Result block: 1.0

Query block: Query: recorded result category for Cc1ccc(CC(C)NCC(O)c2cccc(Cl)c2)cc1F (centres undefined) in this test
Result block: 1.0

Query block: Query: recorded result category for `Cc1[nH]c2ccccc2c1C1=CCN(CCN2CCOc3c(Br)cccc3C2=O)CC1` in this test
Result block: 1.0

Query block: Query: recorded result category for Cc1cc(C2CCCCN2C)ccc1-c1ccc(C(=O)N2CCc3cc4c(cc32)C2(CCN(C)CC2)CO4)cc1 (centres undefined) in this test
Result block: 1.0

Query block: Query: recorded result category for `CCCCc1ccc2[nH]cc(C3=CCN(C)CC3)c2c1Br` in this test
Result block: 1.0

Query block: Query: recorded result category for `CC[C@H]1CN2CC[C@@H]1C[C@H]2[C@H](O)c1cc(-c2ccc(F)cc2)nc2ccc(O)cc12` in this test
Result block: 1.0

Query block: Query: recorded result category for O=C(/C=C/c1ccc(Cl)c(Cl)c1)NCC1CCC(N2CCC(c3c[nH]c4ccccc34)CC2)CC1 (centres undefined) in this test
Result block: 1.0

Query block: Query: recorded result category for `COCC(=O)N(Cc1ccccc1-c1ccc(CNCCc2ccccc2)cc1)C1CCN(Cc2ccccc2)CC1` in this test
Result block: 1.0

Query block: Query: recorded result category for `CC[C@H]1CN2CC[C@@H]1C[C@H]2[C@H](O)c1cc(N2CCC(N3CCCCC3)CC2)nc2ccc(OC)cc12` in this test
Result block: 1.0

Query block: Query: recorded result category for `c1ccc2c(NCCCCCCCCCNc3c4ccccc4nc4ccccc34)c3ccccc3nc2c1` in this test
Result block: 1.0

Query block: Query: recorded result category for `CC[C@H]1CN2CC[C@H]1C[C@H]2[C@H](O)c1ccnc2ccc(O)cc12` in this test
Result block: 0.0

====

# ASSAY_EXPLANATION: differential killing of epithelial or mesenchymal cells, primary screen, imaging, PC-3E GFP, TEM4-18 mCherry, co-culture (AID 1345086);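 also: normalised mesenchymal count divided by normalised epithelial count so high means epithelial killing; cells exposed to compound for 72 h before imaging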
# SETTINGS: imaging cell counts, at 1 µM, actives lie on both sides
Rule: measured red/green cell ratio (normalised) below 1 gets 1.0; anything equal to or greater than 1 gets 0.0.

Observe how each entry below is paired with its result.
>>> class_name("CN1CC(CNC(=O)OCc2ccccc2)CC2c3cccc4c3c(cn4C)CC21 (stereo not drawn)")
1.0
>>> class_name("C=C(C)[C@@H]1[C@H]2OC(=O)[C@@H]1[C@]1(O)C[C@H]3O[C@]34C(=O)O[C@H]2[C@]14C")
0.0
>>> class_name("NC(=O)c1cc([N+](=O)[O-])cc([N+](=O)[O-])c1")
1.0
>>> class_name("C/C=C(/C)C(=O)O[C@H]1CC[C@@]2(C)[C@@H]3CC[C@H]4[C@]5(O)C[C@H](O)[C@@]6(O)[C@@H](CN7C[C@@H](C)CC[C@H]7[C@@]6(C)O)[C@]5(O)C[C@@]42O[C@]13O")
1.0
>>> class_name("O=C1CCO1")
0.0

API: the following record is the query input.
Query block: Just wondering, is red/green cell ratio (normalised) of CC(CO)NC(=O)C1C=C2c3cccc4[nH]cc(c34)C[C@H]2N(C)C1 (stereo partly drawn) below 1?
Result block: 0.0

====

# ASSAY_EXPLANATION: growth inhibition of DIPG glioma cells, dose response, cell-based, SU-DIPG-XIII, MIPE5.0, CellTiter-Glo, qHTS (AID 1347064);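 as to AC50: cells exposed to compound for 48 hours before the viability read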
# SETTINGS: SU-DIPG-XIII viability, CellTiter-Glo ATP luminescence
Records with an inconclusive call do not appear. Active and inactive are the calls of the source. The limit is not given here; nearly all actives have AC50 up to about 23 µM.
MEASUREMENT_KIND: AC50

Worked cases, AC50 given:
>>> observed_measurement("O=P1(N(CCCl)CCCl)NCCCO1 (stereo not given)")
"inactive"
>>> observed_measurement("COC[C@@H](NC(C)=O)C(=O)NCc1ccccc1")
"inactive"
>>> observed_measurement("O=c1[nH]c2ccccc2n1CCCN1CCC(n2c(=O)[nH]c3cc(Cl)ccc32)CC1")
"inactive"
>>> observed_measurement("c1ccc2c(CN3CCNCC3)cccc2c1")
"inactive"
>>> observed_measurement("CC[C@H]1/C=C\\C=C/C[C@@H](C)[C@H](O)[C@@](C)(O)C(=O)[C@@H](C)[C@H](O)[C@@H](C)C(=O)[C@@H](C)[C@H](O)[C@@H](C)/C=C/C(=O)O[C@@H]2[C@H](C)[C@H](CC1)O[C@]1(CC[C@H](C)[C@H](C[C@@H](C)O)O1)[C@H]2C")
"7.42 µM (active)"
>>> observed_measurement("CCOC(=O)Nc1ccc(NCc2ccc(F)cc2)cc1N")
"inactive"

Short answer for `C=C(C)[C@@H]1CCC(C)=C[C@H]1c1c(O)cc(CCCCC)cc1O` : AC50 was 23.5 µM (active)

Short answer for `C[C@]12COC(=O)C[C@@H]1CC[C@@H]1[C@@H]2CC[C@@]2(C)[C@H]1CC[C@]2(C)O` : AC50 was inactive

====

# ASSAY_EXPLANATION: glucagon-like peptide 1 release enhancers, primary assay, NCI-H716 cell line, NPC library (AID 1117341)
# SETTINGS: NCI-H716 cells, at 10 µM, stronger effect = higher value
MEASUREMENT_KIND: GLP1 secretion stimulation (%)
Give your result in % as a bare value.

Short answer for `CC(C)(C)CC(C)(C)c1ccc(O)cc1` : GLP1 secretion stimulation was 28.5

Short answer for `C[C@H]1CNCCc2ccc(Cl)cc21` : GLP1 secretion stimulation was 6.1

====

# ASSAY_EXPLANATION: HTB85 osteosarcoma cell growth inhibition, synergistic combos for chromothripsis tumors, BGB or cisplatin IC20 combos (AID 1671453);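 also: cells exposed for 96 hours before readout; 0% = vehicle DMSO and 100% = high DMSO killing control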
# SETTINGS: HTB85 osteosarcoma cells, drug combinations, measured here: with BGB IC20, at 0.5 µM, stronger effect = higher value
Below, each of the compounds is paired with its reported inhibition value.

Worked cases, inhibition given:
>>> observed_measurement("Cc1c2ccncc2c(C)c2c1[nH]c1ccccc12")
"-6.83%"
>>> observed_measurement("O=C1CCC[C@@H]2[C@H]3CCCN4CCC[C@@H](CN12)[C@@H]34")
"0.562%"
>>> observed_measurement("O=c1[nH]c(=O)n(C2OC(CO)C(O)C2O)cc1F (stereo not drawn)")
"-3.46%"
>>> observed_measurement("Cn1c(CCCC(=O)O)nc2cc(N(CCCl)CCCl)ccc21")
"-54.6%"
>>> observed_measurement("COc1cc(C2c3cc4c(cc3C(O)C3COC(=O)C23)OCO4)cc(OC)c1OC (stereo not drawn)")
"55.2%"
>>> observed_measurement("O=P(O)(NCCCl)NCCCl")
"-31.2%"
>>> observed_measurement("NC(Cc1ccc(N(CCCl)CCCl)cc1)C(=O)O (stereo not drawn)")
"1.88%"

Short answer for `CCC1(c2ccccc2)C(=O)NC(=O)NC1=O` : inhibition was -10.6%
